Item-by-item account of bioavailability
# procedure.details: Pharmacokinetics after single dose of ELQ-598
# Format: in vivo
# details: male, CD1, mouse, plasma, po, 10 mg/kg; read-out: F (oral bioavailability)
Numeric only. Scale: %

Find the recorded bioavailability belonging to COc1cc2[nH]c(C)c(-c3ccc(-c4ccc(OC(F)(F)F)cc4)cc3)c(=O)c2cc1Cl [ELQ-596] and report it.
73

Find the recorded bioavailability belonging to CCOC(=O)OCOc1c(-c2ccc(-c3ccc(OC(F)(F)F)cc3)cc2)c(C)nc2cc(OC)c(Cl)cc12 [ELQ-598] and report it.
0.26

###

Item-by-item account of blood stage in vivo efficacy, 4 day Peters test results, ED50
# Test system: P. yoelii blood-stage infection
# details: mice, oral gavage days 1-4, parasitemia day 5; prodrugs dosed on molar equivalency to parent
Numeric only. Scale: mg/kg/day

| molecule | units.symbol | experimental.result |
| --- | --- | --- |
| O=C1C(O)=C([C@H]2CC[C@H](c3ccc(Cl)cc3)CC2)C(=O)c2ccccc21 [Atovaquone, reference compound] | mg/kg/day | 0.1 |
| COc1cc2[nH]c(C)c(-c3ccc(Oc4ccc(OC(F)(F)F)cc4)cc3)c(=O)c2cc1Cl | mg/kg/day | 0.02 |
| CCOC(=O)OCOc1c(-c2ccc(-c3ccc(OC(F)(F)F)cc3)cc2)c(C)nc2cc(OC)c(Cl)cc12 | mg/kg/day | 0.005 |

Find the recorded blood stage in vivo efficacy, 4 day Peters test results, ED50 belonging to CCOC(=O)OCOc1c(-c2ccc(Oc3ccc(OC(F)(F)F)cc3)cc2)c(C)nc2cc(OC)c(Cl)cc12 and report it.
0.02

Find the recorded blood stage in vivo efficacy, 4 day Peters test results, ED50 belonging to COc1cc2[nH]c(C)c(-c3ccc(-c4ccc(OC(F)(F)F)cc4)cc3)c(=O)c2cc1Cl and report it.
0.01

###

# procedure.details: Pharmacokinetics after single dose of ELQ-598
# Assay type: in vivo
# details: male, CD1; mouse plasma, single ELQ-598 dose 0.3 mg/kg IV; elimination
Item-by-item account of half-life
Numeric only. Scale: h

| structure.as.smiles | units.symbol | half-life |
| --- | --- | --- |
| COc1cc2[nH]c(C)c(-c3ccc(-c4ccc(OC(F)(F)F)cc4)cc3)c(=O)c2cc1Cl | h | 27.4 |

Find the recorded half-life belonging to CCOC(=O)OCOc1c(-c2ccc(-c3ccc(OC(F)(F)F)cc3)cc2)c(C)nc2cc(OC)c(Cl)cc12 and report it.
0.74

###

# procedure.details: Pharmacokinetics after single dose of ELQ-598
# Assay type: in vivo
# details: male, CD1, plasma; mouse, single ELQ-598 dose 10 mg/kg PO; read-out: CL/F (converted)
readout: CL/F

| structure.as.smiles | readout | experimental.result |
| --- | --- | --- |
| COc1cc2[nH]c(C)c(-c3ccc(-c4ccc(OC(F)(F)F)cc4)cc3)c(=O)c2cc1Cl | CL/F | 0.283 mL/min/kg |

Find the recorded CL/F belonging to CCOC(=O)OCOc1c(-c2ccc(-c3ccc(OC(F)(F)F)cc3)cc2)c(C)nc2cc(OC)c(Cl)cc12 and report it.
398 mL/min/kg

###

# procedure.details: Metabolic stability in liver microsomes, rat
# Type: in vitro ADME
# details: rat, pH 7.4
readout: half-life at 1 μM

| structure.as.smiles | half-life at 1 μM |
| --- | --- |
| COc1cc2[nH]c(C)c(-c3ccc(-c4ccc(OC(F)(F)F)cc4)cc3)c(=O)c2cc1Cl | > 4000 min |

Next:
Find the recorded half-life at 1 μM belonging to O=C(c1ccc(F)cc1)C1CCN(CCn2c(=O)[nH]c3ccccc3c2=O)CC1 and report it.
14.4 min

###

# procedure.details: Metabolic stability in liver microsomes, mouse
# Assay type: in vitro ADME
# details: pooled mouse liver microsomes, pH 7.4; mouse liver microsomes 0.5 mg/mL, NADPH, 37 °C, 45 min, 1 μM
readout: half-life at 1 μM (min)
Numeric only. Scale: min

Find the recorded half-life at 1 μM belonging to O=C(c1ccc(F)cc1)C1CCN(CCn2c(=O)[nH]c3ccccc3c2=O)CC1 and report it.
19.1

###

# procedure.details: Metabolic stability in liver microsomes, human
# Assay type: in vitro ADME
# details: human, pH 7.4
readout: half-life at 1 μM (min)
Numeric only. Scale: min

Find the recorded half-life at 1 μM belonging to O=C(c1ccc(F)cc1)C1CCN(CCn2c(=O)[nH]c3ccccc3c2=O)CC1 and report it.
27.3

###

# procedure.details: HepG2 cytotoxicity / mitochondrial toxicity (TiterGlo ATP, galactose medium)
# details: human
readout: EC50 at 24 h

Find the recorded EC50 at 24 h belonging to COc1cc2[nH]c(C)c(-c3ccc(-c4ccc(OC(F)(F)F)cc4)cc3)c(=O)c2cc1Cl [ELQ-596] and report it.
> 10 µM

###

# System: P. falciparum multidrug-resistant Dd2 strain
# procedure.details: microbe, parasite or virus in culture
# Assay type: cell-based
# details: Plasmodium falciparum, DD2, 72 h, read-out: P. falciparum IC50 values, Dd2
# note: boundary value 3 nM maps to rule not met; IC50 below it maps to rule met

| structure.as.smiles | test.target | group.label |
| --- | --- | --- |
| CCOC(=O)OCOc1c(-c2ccc(-c3ccc(OC(F)(F)F)cc3)cc2)c(C)nc2cc(OC)c(Cl)cc12 | P. falciparum multidrug-resistant Dd2 strain | rule not met |
| Cc1[nH]c2c(c(=O)c1-c1ccc(-c3ccc(OC(F)(F)F)cc3)cc1)CCCC2 | P. falciparum multidrug-resistant Dd2 strain | rule not met |
| COc1cc2[nH]c(C)c(-c3ccc(-c4ccc(Oc5ccc(OC(F)(F)F)cc5)cc4)cc3)c(=O)c2cc1Cl | P. falciparum multidrug-resistant Dd2 strain | rule met |
| COc1cc2[nH]c(C)c(-c3ccc(-c4cccc(S(F)(F)(F)(F)F)c4)cc3)c(=O)c2cc1Cl | P. falciparum multidrug-resistant Dd2 strain | rule met |
| COc1cc2[nH]c(C)c(-c3ccc(-c4ccc(C(C)(C)C)cc4)cc3)c(=O)c2cc1Cl | P. falciparum multidrug-resistant Dd2 strain | rule met |

Criterion: IC50 strictly below 3 nM. Is it met by Cc1[nH]c2cc(F)cc(F)c2c(=O)c1-c1ccc(-c2ccc(OC(F)(F)F)cc2)cc1 ?
rule not met

Criterion: IC50 strictly below 3 nM. Is it met by COc1cc2[nH]c(C)c(-c3ccc(-c4ccc(C)cc4)cc3)c(=O)c2cc1Cl ?
rule not met

Criterion: IC50 strictly below 3 nM. Is it met by COc1cc2[nH]c(C)c(-c3ccc(-c4cccc(C(F)(F)F)c4)cc3)c(=O)c2cc1Cl ?
rule met

Criterion: IC50 strictly below 3 nM. Is it met by COc1cc2[nH]c(C)c(-c3ccc(-c4ccc(C(F)F)cc4)cc3)c(=O)c2cc1Cl ?
rule met

Criterion: IC50 strictly below 3 nM. Is it met by COc1cc2[nH]c(C)c(-c3ccc(-c4ccc(C#N)cc4)cc3)c(=O)c2cc1Cl ?
rule not met

Criterion: IC50 strictly below 3 nM. Is it met by COc1cc2[nH]c(C)c(-c3ccc(-c4ccc(OC(F)(F)F)cc4)cc3)c(=O)c2cc1Cl ?
rule met

Criterion: IC50 strictly below 3 nM. Is it met by COc1cc2[nH]c(C)c(-c3ccc(-c4ccc(Cl)cc4)cc3)c(=O)c2cc1Cl ?
rule not met

Criterion: IC50 strictly below 3 nM. Is it met by COc1cc2[nH]c(C)c(-c3ccc(Oc4ccc(OC(F)(F)F)cc4)cc3)c(=O)c2cc1Cl ?
rule not met

Criterion: IC50 strictly below 3 nM. Is it met by COc1cc2[nH]c(C)c(-c3ccc(-c4ccc(S(F)(F)(F)(F)F)cc4)cc3)c(=O)c2cc1Cl ?
rule not met

Criterion: IC50 strictly below 3 nM. Is it met by COc1ccc(-c2ccc(-c3c(C)[nH]c4cc(OC)c(Cl)cc4c3=O)cc2)cc1 ?
rule not met

Criterion: IC50 strictly below 3 nM. Is it met by COc1cc2[nH]c(C)c(-c3ccc(-c4ccc(C(F)(F)F)cc4)cc3)c(=O)c2cc1Cl ?
rule not met

###

# Tested on: P. falciparum drug-sensitive D6 strain
# procedure.details: SYBR Green I antiplasmodial assay, D6 strain
# Format: cell-based
# details: Plasmodium falciparum, D6; 72 h, SYBR Green; mean (95% confidence interval of fit); read-out: P. falciparum IC50 values, D6
readout: pIC50
When answering, recall that pIC50 equals minus log10 of the concentration in mol/L, and write that number alone.

Find the recorded pIC50 belonging to O=C1C(O)=C([C@H]2CC[C@H](c3ccc(Cl)cc3)CC2)C(=O)c2ccccc21 [Atovaquone, reference compound] and report it.
10.10

###

# Test system: P. falciparum atovaquone-resistant clinical isolate Tm90-C2B
# procedure.details: SYBR Green I antiplasmodial assay, Tm90-C2B
# Assay type: cell-based
# details: Plasmodium falciparum, TM90, 72 h, read-out: P. falciparum IC50 values, Tm90-C2B
# From the text: All of this information is stored in a database with information relating to chemical structure, physical chemical properties, cross resistance patterns, mammalian cell cytotoxicity, enzyme inhibitor profiles, and synthesis details. […] Fluorescence readings were captured with a fluorescence plate reader and processed by nonlinear regression analysis using the GraphPad Prism software to provide IC50 values for each determination. […]
Category | rule: reported IC50 within range, see lower band = under 0.8 nM, central band = from 0.8 nM up to 4 nM, upper band = 4 nM and over

| structure.as.smiles | test.target | group.label |
| --- | --- | --- |
| COc1cc2[nH]c(C)c(-c3ccc(-c4ccc(OC(F)F)cc4)cc3)c(=O)c2cc1Cl | P. falciparum atovaquone-resistant clinical isolate Tm90-C2B | upper band |

Returns: class label. Input: COc1cc2[nH]c(C)c(-c3ccc(-c4ccc(S(F)(F)(F)(F)F)cc4)cc3)c(=O)c2cc1Cl
central band

Returns: class label. Input: COc1cc2[nH]c(C)c(-c3ccc(-c4ccc(C#N)cc4)cc3)c(=O)c2cc1Cl
upper band

Returns: class label. Input: Cc1[nH]c2ccccc2c(=O)c1-c1ccc(-c2ccc(OC(F)(F)F)cc2)cc1
upper band

Returns: class label. Input: COc1cc2[nH]c(C)c(-c3ccc(-c4ccc(C(F)F)cc4)cc3)c(=O)c2cc1Cl
lower band

Returns: class label. Input: COc1cc2[nH]c(C)c(-c3ccc(-c4ccc(C(C)(C)C)cc4)cc3)c(=O)c2cc1Cl
lower band

Returns: class label. Input: COc1cc2[nH]c(C)c(-c3ccc(-c4ccc(C)cc4)cc3)c(=O)c2cc1Cl
central band

Returns: class label. Input: COc1cc2[nH]c(C)c(-c3ccc(-c4cccc(OC(F)(F)F)c4)cc3)c(=O)c2cc1Cl
lower band

Returns: class label. Input: COc1cc2[nH]c(C)c(-c3ccc(Oc4ccc(OC(F)(F)F)cc4)cc3)c(=O)c2cc1Cl
central band

Returns: class label. Input: COc1cc2[nH]c(C)c(-c3ccc(-c4ccc(OC(F)(F)F)cc4)cc3)c(=O)c2cc1Cl
lower band

Returns: class label. Input: COc1cc2[nH]c(C)c(-c3ccc(-c4ccc(Oc5ccc(OC(F)(F)F)cc5)cc4)cc3)c(=O)c2cc1Cl
central band

Returns: class label. Input: COc1cc2[nH]c(C)c(-c3ccc(-c4ccc(C(F)(F)F)cc4)cc3)c(=O)c2cc1Cl
central band
